- study-target: PDK1 (Homo sapiens, UniProt O15530)
- Sequence (O15530 1-556): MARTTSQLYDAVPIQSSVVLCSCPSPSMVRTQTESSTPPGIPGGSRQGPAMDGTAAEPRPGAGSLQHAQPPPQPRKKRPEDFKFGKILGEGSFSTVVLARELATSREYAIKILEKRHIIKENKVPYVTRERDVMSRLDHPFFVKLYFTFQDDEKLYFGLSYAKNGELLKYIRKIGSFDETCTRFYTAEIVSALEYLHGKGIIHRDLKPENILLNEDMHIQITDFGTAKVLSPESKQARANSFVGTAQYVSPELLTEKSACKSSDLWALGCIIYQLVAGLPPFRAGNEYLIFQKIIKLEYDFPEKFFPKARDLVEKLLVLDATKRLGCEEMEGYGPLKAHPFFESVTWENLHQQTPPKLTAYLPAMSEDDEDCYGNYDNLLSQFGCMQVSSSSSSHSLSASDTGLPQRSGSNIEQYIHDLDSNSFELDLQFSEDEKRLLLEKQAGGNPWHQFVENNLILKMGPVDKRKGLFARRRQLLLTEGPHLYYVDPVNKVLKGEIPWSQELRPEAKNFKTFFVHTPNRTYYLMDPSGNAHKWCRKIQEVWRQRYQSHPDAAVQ
- assay-remarks: Kinase profiling (radiometric filter-binding)
- Format: biochemical
- test-context: PDK1, 1 µM inhibitor; read-out: Residual activity, %
Square brackets hold non-standard residues; d marks the D form. Peptide text beside a SMILES is read from it. * marks the point of attachment. X3 = O=C(CCCCCNCc1nc2c(sc3cc(Br)cnc32)c(=O)[nH]1)*
List of remaining activity at 1 µM values.
Give just the number in %; leave the unit off.

N=C(N)NCCC[C@@H](NC(=O)CCCCCNC(=O)Cn1cnc2c(I)c(I)c(I)c(I)c21)C(=O)N[C@H](CCCNC(=N)N)C(=O)N[C@H](CCCNC(=N)N)C(=O)N[C@H](CCCNC(=N)N)C(=O)N[C@H](CCCNC(=N)N)C(=O)N[C@H](CCCNC(=N)N)C(=O)N[C@H](CCCCN)C(N)=O [ARC-3125, TIBI-CH2-C(=O)-Ahx-(D-Arg)6-D-Lys-NH2]    123
N=C(N)NCCC[C@@H](NC(=O)CCCCCNCc1nc2c(sc3cc(Br)cnc32)c(=O)[nH]1)C(=O)N[C@H](CCCNC(=N)N)C(=O)N[C@H](CCCNC(=N)N)C(=O)N[C@H](CCCNC(=N)N)C(=O)N[C@H](CCCNC(=N)N)C(=O)N[C@H](CCCNC(=N)N)C(=O)N[C@H](CCCCN)C(N)=O [ARC-3126, BPTP-Ahx-(D-Arg)6-D-Lys-NH2] (X3-[dR][dR][dR][dR][dR][dR][dK]-NH2)    111
N=C(N)NCCC[C@@H](NC(=O)CNC(=O)[C@@H](CCCNC(=N)N)NC(=O)[C@@H](CCCNC(=N)N)NC(=O)Cn1cc(CNCc2nc3c(sc4ccc(Br)cc43)c(=O)[nH]2)nn1)C(=O)N[C@H](CCCCN)C(N)=O [Compound 3, BBTP-Amt-(D-Arg)2-Gly-D-Arg-D-Lys-NH2]    118

Q: Item under review: N=C(N)NCCC[C@@H](NC(=O)CNC(=O)[C@@H](CCCNC(=N)N)NC(=O)[C@@H](CCCNC(=N)N)NC(=O)CCCCCCCNCc1nc2c(sc3ccc(Br)cc32)c(=O)[nH]1)C(=O)N[C@H](CCCCN)C(N)=O [Compound 2, BBTP-Aoc-(D-Arg)2-Gly-D-Arg-D-Lys-NH2] . Reported remaining activity at 1 µM?
Ans: 121

Q: // next record N=C(N)NCCC[C@@H](NC(=O)CNC(=O)[C@@H](CCCNC(=N)N)NC(=O)[C@@H](CCCNC(=N)N)NC(=O)CCCCCCCNCc1nc2c(sc3cc(Br)cnc32)c(=O)[nH]1)C(=O)N[C@H](CCCCN)C(N)=O [Compound 1, BPTP-Aoc-(D-Arg)2-Gly-D-Arg-D-Lys-NH2]
Ans: 116

====

- study-target: MST3 (Homo sapiens, UniProt Q9Y6E0)
- Sequence (Q9Y6E0 whole entry): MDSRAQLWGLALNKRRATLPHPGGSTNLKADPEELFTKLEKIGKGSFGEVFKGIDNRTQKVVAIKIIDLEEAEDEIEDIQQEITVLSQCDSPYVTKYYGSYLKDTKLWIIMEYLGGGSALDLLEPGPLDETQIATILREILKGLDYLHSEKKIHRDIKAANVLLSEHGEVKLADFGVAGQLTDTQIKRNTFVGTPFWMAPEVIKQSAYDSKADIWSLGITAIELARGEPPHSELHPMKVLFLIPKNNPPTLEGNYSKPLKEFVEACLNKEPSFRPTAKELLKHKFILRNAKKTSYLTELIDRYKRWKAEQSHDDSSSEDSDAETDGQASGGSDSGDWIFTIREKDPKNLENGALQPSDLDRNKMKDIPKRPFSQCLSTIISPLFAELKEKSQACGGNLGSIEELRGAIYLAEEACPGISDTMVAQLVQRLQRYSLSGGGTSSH
- assay-remarks: Kinase profiling (radiometric filter-binding)
- Type: biochemical
- test-context: MST3, 1 µM inhibitor; read-out: Residual activity, %
Square brackets hold non-standard residues; d marks the D form. Peptide text beside a SMILES is read from it. * marks the point of attachment. X3 = O=C(CCCCCNCc1nc2c(sc3cc(Br)cnc32)c(=O)[nH]1)*
property-measured: remaining activity at 1 µM (%)
Respond with the bare value in %.

# example entries with known answers
N=C(N)NCCC[C@@H](NC(=O)CCCCCNCc1nc2c(sc3cc(Br)cnc32)c(=O)[nH]1)C(=O)N[C@H](CCCNC(=N)N)C(=O)N[C@H](CCCNC(=N)N)C(=O)N[C@H](CCCNC(=N)N)C(=O)N[C@H](CCCNC(=N)N)C(=O)N[C@H](CCCNC(=N)N)C(=O)N[C@H](CCCCN)C(N)=O [ARC-3126, BPTP-Ahx-(D-Arg)6-D-Lys-NH2] (X3-[dR][dR][dR][dR][dR][dR][dK]-NH2)    102
N=C(N)NCCC[C@@H](NC(=O)CNC(=O)[C@@H](CCCNC(=N)N)NC(=O)[C@@H](CCCNC(=N)N)NC(=O)Cn1cc(CNCc2nc3c(sc4ccc(Br)cc43)c(=O)[nH]2)nn1)C(=O)N[C@H](CCCCN)C(N)=O [Compound 3, BBTP-Amt-(D-Arg)2-Gly-D-Arg-D-Lys-NH2]    98
N=C(N)NCCC[C@@H](NC(=O)CCCCCNC(=O)Cn1cnc2c(I)c(I)c(I)c(I)c21)C(=O)N[C@H](CCCNC(=N)N)C(=O)N[C@H](CCCNC(=N)N)C(=O)N[C@H](CCCNC(=N)N)C(=O)N[C@H](CCCNC(=N)N)C(=O)N[C@H](CCCNC(=N)N)C(=O)N[C@H](CCCCN)C(N)=O [ARC-3125, TIBI-CH2-C(=O)-Ahx-(D-Arg)6-D-Lys-NH2]    51

Q: What measured remaining activity at 1 µM goes with N=C(N)NCCC[C@@H](NC(=O)CNC(=O)[C@@H](CCCNC(=N)N)NC(=O)[C@@H](CCCNC(=N)N)NC(=O)CCCCCCCNCc1nc2c(sc3cc(Br)cnc32)c(=O)[nH]1)C(=O)N[C@H](CCCCN)C(N)=O [Compound 1, BPTP-Aoc-(D-Arg)2-Gly-D-Arg-D-Lys-NH2] ?
Ans: 104

Q: Do the same for N=C(N)NCCC[C@@H](NC(=O)CNC(=O)[C@@H](CCCNC(=N)N)NC(=O)[C@@H](CCCNC(=N)N)NC(=O)CCCCCCCNCc1nc2c(sc3ccc(Br)cc32)c(=O)[nH]1)C(=O)N[C@H](CCCCN)C(N)=O [Compound 2, BBTP-Aoc-(D-Arg)2-Gly-D-Arg-D-Lys-NH2] please
Ans: 112

====

Quick reference: remaining activity at 1 µM of the listed items.
- study-target: PKCγ (Homo sapiens, UniProt P05129)
- assay-remarks: Kinase profiling (radiometric filter-binding)
- Format: biochemical
- test-context: 1 µM inhibitor, read-out: Residual activity, %
Square brackets hold non-standard residues; d marks the D form. Peptide text beside a SMILES is read from it. * marks the point of attachment. X3 = O=C(CCCCCNCc1nc2c(sc3cc(Br)cnc32)c(=O)[nH]1)*
Form entry: value (%) — number only.

Field: example entries. Status: answers known.
N=C(N)NCCC[C@@H](NC(=O)CCCCCNCc1nc2c(sc3cc(Br)cnc32)c(=O)[nH]1)C(=O)N[C@H](CCCNC(=N)N)C(=O)N[C@H](CCCNC(=N)N)C(=O)N[C@H](CCCNC(=N)N)C(=O)N[C@H](CCCNC(=N)N)C(=O)N[C@H](CCCNC(=N)N)C(=O)N[C@H](CCCCN)C(N)=O [ARC-3126, BPTP-Ahx-(D-Arg)6-D-Lys-NH2] (X3-[dR][dR][dR][dR][dR][dR][dK]-NH2)    98
N=C(N)NCCC[C@@H](NC(=O)CCCCCNC(=O)Cn1cnc2c(I)c(I)c(I)c(I)c21)C(=O)N[C@H](CCCNC(=N)N)C(=O)N[C@H](CCCNC(=N)N)C(=O)N[C@H](CCCNC(=N)N)C(=O)N[C@H](CCCNC(=N)N)C(=O)N[C@H](CCCNC(=N)N)C(=O)N[C@H](CCCCN)C(N)=O    86

// below: remaining activity at 1 µM requested for another compound
Q: Query: remaining activity at 1 µM; subject: `N=C(N)NCCC[C@@H](NC(=O)CNC(=O)[C@@H](CCCNC(=N)N)NC(=O)[C@@H](CCCNC(=N)N)NC(=O)CCCCCCCNCc1nc2c(sc3cc(Br)cnc32)c(=O)[nH]1)C(=O)N[C@H](CCCCN)C(N)=O`
Ans: 99

Where do the numbers come from? From paper PMC8307404.
